// provenance: ChEMBL document CHEMBL4689842

This listing pairs molecules with measured Growth Rate.
System: U2OS
Protocol Description: Incucyte cell viability with U2OS; note: filed as whole numbers so only -1 and 0 and 1 occur
Format: toxicity, cell-based
Condition Info: human, 24 h, 10 µM, compound concentration 10 uM, replicate number 1, timepoint 24 hours
Note: the reply should be a number with no unit written.

Known Growth Rate results, listed for orientation:
[
  {
    "Molecule": "CCCCC[C@H](O)/C=C/[C@@H]1[C@@H](C/C=C\\CCCC(=O)O)[C@@H](O)C[C@H]1O",
    "System Name": "U2OS",
    "Growth Rate": 1
  },
  {
    "Molecule": "COc1cc2c(NC3CCN(C(C)C)CC3)nc(N3CCC(F)(F)CC3)nc2cc1OCCCN1CCCC1",
    "System Name": "U2OS",
    "Growth Rate": 1
  },
  {
    "Molecule": "CCOC(=O)c1cc(C#N)c(N2CCC(C(=O)NS(=O)(=O)Cc3ccccc3)CC2)nc1C",
    "System Name": "U2OS",
    "Growth Rate": 0
  }
]

Suppose we examine the molecule Cc1nc2sccn2c(=O)c1CCN1CCC(=C(c2ccc(F)cc2)c2ccc(F)cc2)CC1 ; what Growth Rate value has been reported? 1

Next molecule up: COc1ccc(NS(=O)(=O)c2sc3ccc(Cl)cc3c2C)cc1N1CCNCC1.Cl 0

Please answer likewise for Nc1nc2c(c(N3CCNCC3)n1)CCC1=C2[C@@H]2CCCC[C@@H]2O1 1

Record: CCn1c(-c2nonc2N)nc2cnc(Oc3cccc(NC(=O)c4ccc(OCCN5CCOCC5)cc4)c3)cc21 [GSK-269962A] 1

What do we get for CN(CCOc1ccc(C[C@H](Nc2ccccc2C(=O)c2ccccc2)C(=O)O)cc1)c1ccccn1.O ? 1

Moving on to the next molecule: C=CCN1C[C@H](C)N([C@H](c2ccc(C(=O)N(CC)CC)cc2)c2cccc(O)c2)C[C@H]1C 1
